Could you please report measured Activity for the items listed next?
System: Vero
Assay: Cytotoxicity against African green monkey Vero cells at 300 uM after 24 hrs by resazurin redox dye based fluorimetric microtiter method
Format: cell-based
Details: chlorocebus sabaeus
Numbers only, in %.

Worked examples follow.
{"columns": ["COMPOUND", "SYSTEM_TESTED", "Activity [%]"],
 "data": [
  ["O=C1Nc2cc([N+](=O)[O-])ccc2N2CCCOC12 (configuration not stated)", "Vero", 2.08],
  ["CCN(CC)CCCN1CC(=O)N(C)c2cc([N+](=O)[O-])ccc21.Cl", "Vero", 10.81],
  ["Cc1ncc([N+](=O)[O-])n1CCO [METRONIDAZOLE]", "Vero", 0],
  ["Cl.O=C1CN(CCN2CCCCC2)c2ccc([N+](=O)[O-])cc2N1", "Vero", 1.51],
  ["Cn1c(=O)c(=O)n(CCCCCCCl)c2ccc([N+](=O)[O-])cc21", "Vero", 14.14]
]}

# map each compound to its Activity
1. CN1C(=O)CN(CCN2CCCCC2)c2ccc([N+](=O)[O-])cc21
2. CCN(CC)CCCN1CC(=O)Nc2cc([N+](=O)[O-])ccc21.Cl
3. CN(C)CCN1CC(=O)N(C)c2cc([N+](=O)[O-])ccc21
4. CN(C)CCN1CC(=O)Nc2cc([N+](=O)[O-])ccc21.Cl
5. CN1C(=O)CN(CCCO)c2ccc([N+](=O)[O-])cc21
6. Cl.O=C1CN(CCCN2CCCCC2)c2ccc([N+](=O)[O-])cc2N1
7. Cn1c(=O)c(=O)n(CCCCCCl)c2ccc([N+](=O)[O-])cc21

0
0.16
17.29
0
5.07
3.26
0

###

Test system: Trichomonas vaginalis
Assay: Trichomonicidal activity against Trichomonas vaginalis JH31A#4 trophozite assessed as inhibition of parasite growth at 150 uM after 24 hrs by resazurin redox dye based fluorimetric microtiter method
Assay type: functional
Conditions: JH31A#4, 24 h
ASSAY_READOUT: inhibition at 150 µM (%)
One number for each entry, in %.

{"columns": ["MOLECULE", "ASSAY_READOUT", "ASSAY_RESULT"],
 "data": [
  ["O=c1[nH]c2cc([N+](=O)[O-])ccc2n(CCCCCl)c1=O", "inhibition at 150 µM", 40.6],
  ["Cn1c(=O)c(=O)n(CCCCCCl)c2ccc([N+](=O)[O-])cc21", "inhibition at 150 µM", 66.2],
  ["CN(C)CCN1CC(=O)Nc2cc([N+](=O)[O-])ccc21.Cl", "inhibition at 150 µM", 96.9]
]}

# map each molecule to its inhibition at 150 µM
1. Cn1c(=O)c(=O)n(CCCCCCCl)c2ccc([N+](=O)[O-])cc21
2. O=C1Nc2cc([N+](=O)[O-])ccc2N2CCCOC12 (stereo unspecified)
3. O=c1[nH]c2cc([N+](=O)[O-])ccc2n(CCCCCCCl)c1=O
4. CN1C(=O)CN(CCCN2CCCCC2)c2ccc([N+](=O)[O-])cc21
5. O=c1[nH]c2cc([N+](=O)[O-])ccc2n(CCCCCCl)c1=O

1. 84.7
2. 92.8
3. 70.8
4. 63.3
5. 47.1

###

Could you please report measured inhibition at 300 µM for the items listed next?
Tested on: Trichomonas vaginalis
Assay: Trichomonicidal activity against Trichomonas vaginalis JH31A#4 trophozite assessed as inhibition of parasite growth at 300 uM after 24 hrs by resazurin redox dye based fluorimetric microtiter method
Assay type: functional
Details: JH31A#4, 24 h
One number for each entry, in %.

{"columns": ["SUBSTANCE_SMILES", "ASSAY_RESULT"],
 "data": [
  ["CCN(CC)CCCN1CC(=O)Nc2cc([N+](=O)[O-])ccc21.Cl", 88.6]
]}

# map each compound to its inhibition at 300 µM
1. O=c1[nH]c2cc([N+](=O)[O-])ccc2n(CCCCCCl)c1=O
2. Cn1c(=O)c(=O)n(CCCCCCCl)c2ccc([N+](=O)[O-])cc21
3. Cn1c(=O)c(=O)[nH]c2cc([N+](=O)[O-])ccc21
4. Cn1c(=O)c(=O)n(CCCCCCl)c2ccc([N+](=O)[O-])cc21

1: 94; 2: 92.6; 3: 41.7; 4: 70.2

Where do these numbers come from? They come from ChEMBL document CHEMBL3576838.
